SYSTEM_NAME: T1, hen egg-white lysozyme (HEL) (Gallus gallus, UniProt P00698)
T1 construct: hen egg-white lysozyme (HEL); purchased Sigma
ASSAY_SUMMARY: Titration of H4S conjugates with HEL, monitored by fluorescence
Type: binding
EXPERIMENTAL_PARAMETERS: decrease of free energy of interaction with HEL on fluorophore conjugation, from Kd of conjugate versus H4S(wt)
OUTCOME_MEASURE: ΔΔG

Study these solved cases before continuing.
Leu31: H4S conjugate: residue Leu31 changed into cysteine and coupled with the IANBD fluorophore (conjugate) MRGSHHHHHHGSVKVKFFWNGEEKEVDTSKIVWVKRAGKSVCFIYDDNGKNGYGDVTEKDAPKELLDMLARAEREKKLN : ≥ 1.5 kcal/mol
Phe7: H4S conjugate: residue Phe7 changed into cysteine and coupled with the IANBD fluorophore (conjugate) MRGSHHHHHHGSVKVKFCWNGEEKEVDTSKIVWVKRAGKSVLFIYDDNGKNGYGDVTEKDAPKELLDMLARAEREKKLN : ≤ 0.5 kcal/mol
Asn9: H4S conjugate: residue Asn9 changed into cysteine and coupled with the IANBD fluorophore (conjugate) MRGSHHHHHHGSVKVKFFWCGEEKEVDTSKIVWVKRAGKSVLFIYDDNGKNGYGDVTEKDAPKELLDMLARAEREKKLN : ≤ 0.5 kcal/mol
Ile33: H4S conjugate: residue Ile33 changed into cysteine and coupled with the IANBD fluorophore (conjugate) MRGSHHHHHHGSVKVKFFWNGEEKEVDTSKIVWVKRAGKSVLFCYDDNGKNGYGDVTEKDAPKELLDMLARAEREKKLN : ≥ 1.5 kcal/mol
Asn40: H4S conjugate: residue Asn40 changed into cysteine and coupled with the IANBD fluorophore (conjugate) MRGSHHHHHHGSVKVKFFWNGEEKEVDTSKIVWVKRAGKSVLFIYDDNGKCGYGDVTEKDAPKELLDMLARAEREKKLN : ≥ 1.5 kcal/mol

// next item, ΔΔG requested
Prompt: So what's the measured ΔΔG for this one? Ser29: H4S conjugate: residue Ser29 changed into cysteine and coupled with the IANBD fluorophore (conjugate) MRGSHHHHHHGSVKVKFFWNGEEKEVDTSKIVWVKRAGKCVLFIYDDNGKNGYGDVTEKDAPKELLDMLARAEREKKLN
Completion: ≤ 0.5 kcal/mol
